test system: NTR1 (Homo sapiens, UniProt P30989)
Sequence (P30989 whole entry): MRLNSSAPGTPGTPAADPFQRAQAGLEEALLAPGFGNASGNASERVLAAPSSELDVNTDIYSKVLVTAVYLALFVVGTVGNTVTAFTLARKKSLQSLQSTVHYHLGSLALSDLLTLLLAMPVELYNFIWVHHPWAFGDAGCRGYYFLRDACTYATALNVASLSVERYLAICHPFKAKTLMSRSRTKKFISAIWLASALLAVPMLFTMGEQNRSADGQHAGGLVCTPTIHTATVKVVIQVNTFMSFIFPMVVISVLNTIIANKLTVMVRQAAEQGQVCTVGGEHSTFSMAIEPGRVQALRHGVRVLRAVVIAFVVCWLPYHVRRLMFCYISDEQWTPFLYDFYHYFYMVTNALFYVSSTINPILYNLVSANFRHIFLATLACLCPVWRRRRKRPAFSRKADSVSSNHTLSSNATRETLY
assay protocol: ^125I-NT binding to PC3 cells
conditions: as much as / up to, dose-response
Let's look at some compounds and their measured maximal increase in NT binding to PC3 cells.

Below: 2 compounds and their reported maximal increase in NT binding to PC3 cells.
COc1ccc([C@@H]2Sc3ccccc3N(CCN(C)C)C(=O)[C@@H]2OC(C)=O)cc1 ... ≤ 1.4 fold
CC(C)c1ccc2c(c1)c(SC(C)(C)C)c(CC(C)(C)C(=O)O)n2Cc1ccc(Cl)cc1 ... ≤ 3.0 fold

IN: # query: maximal increase in NT binding to PC3 cells of entry CCCCCC(O)c1cccc(OCc2ccc3ccccc3n2)c1 (stereo not shown)
OUT: ≤ 2.4 fold

IN: # query: maximal increase in NT binding to PC3 cells of entry O=C(/C=C/c1ccc(O)c(O)c1)OCCc1ccccc1
OUT: ≤ 2.8 fold

----------
Let's look at some compounds and their measured pEC50.
test system: NTR1 (Homo sapiens, UniProt P30989)
assay protocol: ^125I-NT binding to PC3 cells
Please keep in mind that pEC50 is minus log10 of the molar concentration; only the number is needed.

Below: 3 compounds and their reported pEC50.
O=C(/C=C/c1ccc(O)c(O)c1)OCCc1ccccc1 ... 4.47
N#CC(C#N)=NNc1cccc(Cl)c1 [CCCP, Carbonyl cyanide 3-chlorophenylhydrozone] ... 4.64
C=C(C)[C@H]1Cc2c(ccc3c2O[C@@H]2COc4cc(OC)c(OC)cc4[C@@H]2C3=O)O1 ... 4.42

Then there is this compound:
IN: # query: pEC50 of entry c1ccc2c(c1)[I+]c1ccccc1-2
OUT: 4.21

----------
test system: NTR1 (Homo sapiens, UniProt P30989)
assay protocol: NT-induced IP formation in PC3 cells
Type: cell-based
Set-up: Ab-NTR1 detected two major bands in extracts of PC3 cells, the parent protein of 50 kDa; endogenous in cells; host or cells: PC3 cells (ATCC)
conditions: [agent] giving 50% decrease in IP formation; read-out: IP Formation IC50
endpoint: IC50 (µM)
Reply with just the number (in µM).

IN: # query: IC50 of entry c1ccc2c(c1)[I+]c1ccccc1-2 [Diphenylene iodonium]
OUT: 35

----------
Let's look at some compounds and their measured Specific Binding (% control) of ^125I-[Nle14]-bombesin.
test system: bombesin receptor (Homo sapiens)
Construct: endogenous in cells; host or cells: PC3 cells (ATCC)
Sequence (P30550 whole entry): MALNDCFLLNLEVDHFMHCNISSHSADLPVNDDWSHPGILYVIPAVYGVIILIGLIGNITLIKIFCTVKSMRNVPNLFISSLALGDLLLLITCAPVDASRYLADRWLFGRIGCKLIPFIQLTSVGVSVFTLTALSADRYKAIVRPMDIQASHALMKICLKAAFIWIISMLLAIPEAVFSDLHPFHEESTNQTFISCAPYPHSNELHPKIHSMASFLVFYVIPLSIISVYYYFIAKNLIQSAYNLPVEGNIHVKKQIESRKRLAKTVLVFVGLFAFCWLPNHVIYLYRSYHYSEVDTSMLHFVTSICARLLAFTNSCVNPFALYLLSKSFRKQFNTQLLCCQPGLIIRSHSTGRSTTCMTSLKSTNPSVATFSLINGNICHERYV
assay protocol: ^125I-[Nle^14]-bombesin binding to PC3 cells
conditions: 60 μM LOX blocker, 37° C.

Below: 3 compounds and their reported Specific Binding (% control) of ^125I-[Nle14]-bombesin.
CCCCCC(O)c1cccc(OCc2ccc3ccccc3n2)c1 (stereo not shown) ... 119 ± 3 % control
CC(C)c1ccc2c(c1)c(SC(C)(C)C)c(CC(C)(C)C(=O)O)n2Cc1ccc(Cl)cc1 ... 125 ± 7 % control
CC(Cc1ccc(O)c(O)c1)C(C)Cc1ccc(O)c(O)c1 (stereo not shown) [NDGA, Nordihydroguaiaretic acid] ... 127 ± 4 % control

Then there is this compound:
IN: # query: Specific Binding (% control) of ^125I-[Nle14]-bombesin of entry CC1=C(C)C(=O)C(CCCCC#CCCCC#CCO)=C(C)C1=O
OUT: 135 ± 6 % control

----------
test system: NTR1 (Homo sapiens)
assay protocol: ^125I-NT binding to PC3 cells
conditions: LOX blockers
Let's look at some compounds and their measured NT Binding Efficacy % increase.
Reply with just the number (in % increase).

Below: 4 compounds and their reported NT Binding Efficacy % increase.
Cc1cc2c(C(C)C)c(O)c(O)c(C=O)c2c(O)c1-c1c(C)cc2c(C(C)C)c(O)c(O)c(C=O)c2c1O ... 170
CCNC(=O)[C@H]1O[C@@H](n2cnc3c(N)nc(NCCc4ccc(CCC(=O)O)cc4)nc32)[C@H](O)[C@@H]1O ... 228
CCCc1c(OCCCCc2nnn[nH]2)ccc(C(C)=O)c1O ... 157
CC(C)c1ccc2c(c1)c(SC(C)(C)C)c(CC(C)(C)C(=O)O)n2Cc1ccc(Cl)cc1 ... 210

Then there is this compound:
IN: # query: NT Binding Efficacy % increase of entry CCCCCC(O)c1cccc(OCc2ccc3ccccc3n2)c1 (centres unmarked)
OUT: 160
